The following molecules are shown together with reported IC50 values.
Test system: MCF-7 (human breast carcinoma)
protocol.details: MTT assay, MCF-7
Type: cell-based
experimental.parameters: Homo sapiens, MCF7; MTT assay, MCF-7; read-out: IC50 (±SD), MCF-7
measured.property: IC50 (µM)

1. C=C(C)C1CCC2(C(=O)O)CCC3(C)C(CCC4C5(C)CCC(OC(C)=O)C(C)(C)C5CCC43C)C12 (stereo not drawn); 1.5
2. C=C(C)[C@@H]1CC[C@]2(C(=O)O)CC[C@]3(C)[C@H](CC[C@@H]4[C@@]5(C)CC[C@H](O)C(C)(C)[C@@H]5CC[C@]43C)[C@@H]12; 27.9
3. CC1(C)CC[C@]2(CO)CC[C@]3(C)C(=CC[C@@H]4[C@@]5(C)CC[C@H](O)C(C)(C)[C@@H]5CC[C@]43C)[C@@H]2C1; 65.5
